- experimental.details: Kinetic solubility
- measurement.parameters: kinetic from dmso stock, Solubility, kinetic solubility; n = 1 or average of n = 2-3
result.type: solubility

Consider the reported solubility for these molecules:
# molecule, solubility
rows = [
    ("N#C[C@@H]1CSCN1C(=O)CNC(=O)c1ccnc2ccc(N3CC(CF)C3)cc12 [Example 113]", "71 µM"),
    ("C[C@@H]1COC[C@H](C)N1c1ccc2nccc(C(=O)NCC(=O)N3CSC[C@H]3C#N)c2c1 [Example 90]", "> 1000 µM"),
    ("N#C[C@@H]1CSCN1C(=O)CNC(=O)c1ccnc2ccc(N3C[C@H](O)C(F)(F)C3)cc12 (mixture of isomers) [Example 224]", "50 µM"),
]

The molecule identified as N#C[C@@H]1CSCN1C(=O)CNC(=O)c1c(F)cnc2ccc(N3CCOCC3)cc12 [Example 2] registered its solubility at 83 µM

The molecule identified as N#C[C@@H]1CSCN1C(=O)CNC(=O)c1ccnc2ccc(N3CCO[C@@H](C(F)(F)F)C3)cc12 [Example 73] registered its solubility at 310 µM

The molecule identified as CC1(C)CCN1c1ccc2nccc(C(=O)NCC(=O)N3CSC[C@H]3C#N)c2c1 [Example 20] registered its solubility at 900 µM

The molecule identified as C[C@H]1CCCN1c1ccc2nccc(C(=O)NCC(=O)N3CSC[C@H]3C#N)c2c1 [Example 65] registered its solubility at 49 µM

The molecule identified as CC1(O)CCN(c2ccc3nccc(C(=O)NCC(=O)N4CSC[C@H]4C#N)c3c2)CC1 [Example 190] registered its solubility at > 1000 µM
